Value source: patent US5658924A

test.system: PDE isozyme III (Sus scrofa, UniProt I3L6S5)
Construct: centrifugation supernatant of the homogenate of pig ventricular muscle; from tissue; host or cells: pig ventricular muscle, supernatant of homogenate, DEAE-cellulose fraction
Sequence (I3L6S5 1-1145): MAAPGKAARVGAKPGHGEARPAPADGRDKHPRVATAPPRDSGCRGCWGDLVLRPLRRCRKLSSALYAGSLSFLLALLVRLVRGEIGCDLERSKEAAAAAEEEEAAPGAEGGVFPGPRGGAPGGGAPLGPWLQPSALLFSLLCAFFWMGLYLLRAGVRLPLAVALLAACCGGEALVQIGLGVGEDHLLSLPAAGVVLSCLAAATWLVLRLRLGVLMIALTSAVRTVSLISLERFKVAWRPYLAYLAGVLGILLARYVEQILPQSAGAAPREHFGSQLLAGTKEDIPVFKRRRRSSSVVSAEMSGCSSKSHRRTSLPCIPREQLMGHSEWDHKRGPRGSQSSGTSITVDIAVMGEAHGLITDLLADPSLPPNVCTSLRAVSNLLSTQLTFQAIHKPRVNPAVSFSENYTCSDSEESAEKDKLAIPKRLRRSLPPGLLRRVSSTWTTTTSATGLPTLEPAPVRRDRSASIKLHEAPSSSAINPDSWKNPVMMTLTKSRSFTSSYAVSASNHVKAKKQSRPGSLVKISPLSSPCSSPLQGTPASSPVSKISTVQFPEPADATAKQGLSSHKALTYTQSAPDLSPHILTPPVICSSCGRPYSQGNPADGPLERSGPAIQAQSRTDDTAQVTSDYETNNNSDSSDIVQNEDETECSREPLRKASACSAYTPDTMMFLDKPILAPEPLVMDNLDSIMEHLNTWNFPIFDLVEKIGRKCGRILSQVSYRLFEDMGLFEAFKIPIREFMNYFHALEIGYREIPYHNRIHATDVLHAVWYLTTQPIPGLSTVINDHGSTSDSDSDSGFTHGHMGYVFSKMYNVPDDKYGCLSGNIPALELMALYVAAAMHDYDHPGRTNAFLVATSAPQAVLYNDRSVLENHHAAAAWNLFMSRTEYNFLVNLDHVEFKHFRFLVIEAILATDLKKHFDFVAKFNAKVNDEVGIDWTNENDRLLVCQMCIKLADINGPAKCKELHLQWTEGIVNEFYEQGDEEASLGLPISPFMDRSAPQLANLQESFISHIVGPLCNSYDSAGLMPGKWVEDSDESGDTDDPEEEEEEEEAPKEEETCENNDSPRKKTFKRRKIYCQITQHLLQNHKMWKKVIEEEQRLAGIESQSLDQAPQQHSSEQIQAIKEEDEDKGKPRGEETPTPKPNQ
test.name: Inhibition of PDE (isozyme III)
Assay type: biochemical
measurement.conditions: pig ventricular muscle, [3H]-cAMP substrate; read-out: PDE Inhibitory activity (IC5 :μM), PDE isozyme III
Listing of recorded IC50 by entry.

[
  {
    "molecular.string": "Cn1c(=O)c(-c2ccccc2)cc2cccnc21",
    "assay.value": "> 50 µM"
  },
  {
    "molecular.string": "Cc1ccccc1-c1cc2cccnc2n(Cc2ccccc2F)c1=O",
    "assay.value": "> 50 µM"
  }
]

Now for the compound whose IC50 we want.
Request: Kindly state the measured IC50 obtained for `CC(C)CCn1c(=O)c(-c2ccc(Cl)cc2)cc2cccnc21` with PDE isozyme III (Sus scrofa, UniProt I3L6S5).
Result: > 50 µM
